Give measured CC50 for each item. Keep answers brief.
# System: LOX IMVI
# Experiment Description: NCI60 five-dose screen
# Type: cell-based
# Stated Conditions: Homo sapiens, melanoma, read-out: LC50 (the source's name)
Numbers only, in µM.

Examples with answers:
[[record]]
entry_smiles = "O=C(N/N=C/c1cc[nH]c1)c1[nH]c2ccc(Br)cc2c1-c1ccccc1"
reported = 38.7

[[record]]
entry_smiles = "O=C(N/N=C/c1ccc[nH]1)c1[nH]c2ccc(Br)cc2c1-c1ccccc1"
reported = 19

[[record]]
entry_smiles = "O=C(N/N=C/c1cc(Br)c(Br)[nH]1)c1[nH]c2ccc(Br)cc2c1-c1ccccc1"
reported = 31.8

[[record]]
entry_smiles = "CCc1c[nH]c(/C=N/NC(=O)c2[nH]c3ccc(Br)cc3c2-c2ccccc2)c1"
reported = 8.27

[[record]]
entry_smiles = "Cc1cc(C)c(/C=N/NC(=O)c2[nH]c3ccc(Br)cc3c2-c2ccccc2)[nH]1"
reported = 30.2


Now turn to the next compound.
# returns recorded CC50 (system: LOX IMVI) for CCc1ccc(/C=N/NC(=O)c2[nH]c3ccc(Br)cc3c2-c2ccccc2)[nH]1
36.1

====

# Test system: OVCAR-4
# Experiment Description: NCI60 five-dose screen
# Format: cell-based
# Stated Conditions: Homo sapiens; OVCAR-4, ovarian cancer; read-out: LC50 (the source's name)
Metric: CC50 (µM)
Numbers only, in µM.

A selection of reference data follows.
[[record]]
entry_smiles = "O=C(N/N=C/c1ccc([N+](=O)[O-])[nH]1)c1[nH]c2ccc(Br)cc2c1-c1ccccc1"
metric = "CC50"
reported = 35.9

[[record]]
entry_smiles = "CCc1cc[nH]c1/C=N/NC(=O)c1[nH]c2ccc(Br)cc2c1-c1ccccc1"
metric = "CC50"
reported = 43.7

[[record]]
entry_smiles = "O=C(N/N=C/c1cc(Br)c[nH]1)c1[nH]c2ccc(Br)cc2c1-c1ccccc1"
metric = "CC50"
reported = 40.5


Shifting focus to the compound that follows.
Hi! What's the reported CC50 for Cc1cc(C)c(/C=N/NC(=O)c2[nH]c3ccc(Br)cc3c2-c2ccccc2)[nH]1 on OVCAR-4?
40.7

====

# System: MDA-MB-231/ATCC
# Experiment Description: NCI60 five-dose screen
# Assay type: cell-based
# Stated Conditions: Homo sapiens, breast cancer, read-out: LC50 (the source's name)
For each record, write down the corresponding CC50.
Numbers only, in µM.

Please review the following examples before continuing.
[[record]]
entry_smiles = "O=C(N/N=C/c1ccc([N+](=O)[O-])[nH]1)c1[nH]c2ccc(Br)cc2c1-c1ccccc1"
reported = 46.6

[[record]]
entry_smiles = "O=C(N/N=C/c1ccc[nH]1)c1[nH]c2ccc(Br)cc2c1-c1ccccc1"
reported = 21

[[record]]
entry_smiles = "CCOC(=O)c1ccc(/C=N/NC(=O)c2[nH]c3ccc(Br)cc3c2-c2ccccc2)[nH]1"
reported = 33.2


Record CC50 for all entries; do not skip any.
1. Cc1[nH]c(/C=N/NC(=O)c2[nH]c3ccc(Br)cc3c2-c2ccccc2)c(C)c1[N+](=O)[O-]
2. CCOC(=O)c1cc(/C=N/NC(=O)c2[nH]c3ccc(Br)cc3c2-c2ccccc2)c[nH]1
3. O=C(N/N=C/c1cc(Br)c[nH]1)c1[nH]c2ccc(Br)cc2c1-c1ccccc1
4. Cc1cc(C)c(/C=N/NC(=O)c2[nH]c3ccc(Br)cc3c2-c2ccccc2)[nH]1
5. CCc1c[nH]c(/C=N/NC(=O)c2[nH]c3ccc(Br)cc3c2-c2ccccc2)c1

1. 40.5
2. 33.8
3. 14.3
4. 32.8
5. 42.4

# batch: return CC50 for each of the 4 compounds below
1. O=C(N/N=C/c1[nH]ccc1Cl)c1[nH]c2ccc(Br)cc2c1-c1ccccc1
2. O=C(N/N=C/c1ccc(C(=O)N2CCOCC2)[nH]1)c1[nH]c2ccc(Br)cc2c1-c1ccccc1
3. CCOC(=O)c1c[nH]c(/C=N/NC(=O)c2[nH]c3ccc(Br)cc3c2-c2ccccc2)c1
4. O=C(N/N=C/c1cc(Br)c(Br)[nH]1)c1[nH]c2ccc(Br)cc2c1-c1ccccc1

1: 28.2; 2: 83.2; 3: 36.8; 4: 26.3

====

The reader will find GI50 measurements below, all made with MDA-MB-468.

[[record]]
entry_smiles = "O=C(N/N=C/c1cc(Cl)c[nH]1)c1[nH]c2ccc(Br)cc2c1-c1ccccc1"
reported = "251 nM"

[[record]]
entry_smiles = "CCOC(=O)c1cc(/C=N/NC(=O)c2[nH]c3ccc(Br)cc3c2-c2ccccc2)c[nH]1"
reported = "2600 nM"


For every item below, please supply its GI50.
1. CCc1ccc(/C=N/NC(=O)c2[nH]c3ccc(Br)cc3c2-c2ccccc2)[nH]1
2. O=C(N/N=C/c1[nH]ccc1Cl)c1[nH]c2ccc(Br)cc2c1-c1ccccc1

["248 nM", "297 nM"]

====

Hi there, I'd appreciate the recorded GI50 for every entry that follows.
# Tested on: CCRF-CEM
Numbers only, in µM.

Past entries and their recorded results:
[[record]]
entry_smiles = "CCOC(=O)c1ccc(/C=N/NC(=O)c2[nH]c3ccc(Br)cc3c2-c2ccccc2)[nH]1"
unit_descriptor = "µM"
reported = 3.04

[[record]]
entry_smiles = "Cn1cccc1/C=N/NC(=O)c1[nH]c2ccc(Br)cc2c1-c1ccccc1"
unit_descriptor = "µM"
reported = 0.429

[[record]]
entry_smiles = "O=C(N/N=C/c1cc(Br)c(Br)[nH]1)c1[nH]c2ccc(Br)cc2c1-c1ccccc1"
unit_descriptor = "µM"
reported = 2.89

[[record]]
entry_smiles = "O=C(N/N=C/c1ccc([N+](=O)[O-])[nH]1)c1[nH]c2ccc(Br)cc2c1-c1ccccc1"
unit_descriptor = "µM"
reported = 0.382

[[record]]
entry_smiles = "O=C(N/N=C/c1cc([N+](=O)[O-])c[nH]1)c1[nH]c2ccc(Br)cc2c1-c1ccccc1"
unit_descriptor = "µM"
reported = 0.799

[[record]]
entry_smiles = "O=C(N/N=C/c1[nH]ccc1Cl)c1[nH]c2ccc(Br)cc2c1-c1ccccc1"
unit_descriptor = "µM"
reported = 1.53

[[record]]
entry_smiles = "CCOC(=O)c1cc(/C=N/NC(=O)c2[nH]c3ccc(Br)cc3c2-c2ccccc2)c[nH]1"
unit_descriptor = "µM"
reported = 3.7

[[record]]
entry_smiles = "CCOC(=O)c1c[nH]c(/C=N/NC(=O)c2[nH]c3ccc(Br)cc3c2-c2ccccc2)c1"
unit_descriptor = "µM"
reported = 2.41


Dear colleague, could you please provide GI50 for the molecules listed below?
1. CCc1c[nH]c(/C=N/NC(=O)c2[nH]c3ccc(Br)cc3c2-c2ccccc2)c1
2. O=C(N/N=C/c1ccc(C(=O)N2CCOCC2)[nH]1)c1[nH]c2ccc(Br)cc2c1-c1ccccc1
3. O=C(N/N=C/c1cc(Cl)c[nH]1)c1[nH]c2ccc(Br)cc2c1-c1ccccc1
4. CCc1cc[nH]c1/C=N/NC(=O)c1[nH]c2ccc(Br)cc2c1-c1ccccc1
5. O=C(N/N=C/c1cc(Br)c[nH]1)c1[nH]c2ccc(Br)cc2c1-c1ccccc1
6. Cc1[nH]c(/C=N/NC(=O)c2[nH]c3ccc(Br)cc3c2-c2ccccc2)c(C)c1[N+](=O)[O-]
7. O=C(N/N=C/c1ccc[nH]1)c1[nH]c2ccc(Br)cc2c1-c1ccccc1

1. 0.368
2. 3.45
3. 0.132
4. 2.35
5. 0.341
6. 1.89
7. 0.345

I would be grateful if you could provide GI50 for each of the following entries.
1. CCc1ccc(/C=N/NC(=O)c2[nH]c3ccc(Br)cc3c2-c2ccccc2)[nH]1
2. O=C(N/N=C/c1cc[nH]c1)c1[nH]c2ccc(Br)cc2c1-c1ccccc1
3. Cc1cc(C)c(/C=N/NC(=O)c2[nH]c3ccc(Br)cc3c2-c2ccccc2)[nH]1

1. 0.375
2. 0.821
3. 3.07

====

# Test system: HCT-15
# Experiment Description: NCI60 five-dose screen
# Assay type: cell-based
# Stated Conditions: Homo sapiens; HCT-15, colon cancer; read-out: LC50 (the source's name)
Metric: CC50 (µM)
Numbers only, in µM.

Some compounds with known CC50 results, for comparison:
[[record]]
entry_smiles = "O=C(N/N=C/c1cc(Br)c(Br)[nH]1)c1[nH]c2ccc(Br)cc2c1-c1ccccc1"
system_name = "HCT-15"
reported = 33.1

[[record]]
entry_smiles = "O=C(N/N=C/c1cc(Br)c[nH]1)c1[nH]c2ccc(Br)cc2c1-c1ccccc1"
system_name = "HCT-15"
reported = 13.5


Hi team, please reply with CC50 for each item in this list.
1. CCc1ccc(/C=N/NC(=O)c2[nH]c3ccc(Br)cc3c2-c2ccccc2)[nH]1
2. CCc1c[nH]c(/C=N/NC(=O)c2[nH]c3ccc(Br)cc3c2-c2ccccc2)c1
3. O=C(N/N=C/c1ccc[nH]1)c1[nH]c2ccc(Br)cc2c1-c1ccccc1
4. Cc1cc(C)c(/C=N/NC(=O)c2[nH]c3ccc(Br)cc3c2-c2ccccc2)[nH]1
5. CCc1cc[nH]c1/C=N/NC(=O)c1[nH]c2ccc(Br)cc2c1-c1ccccc1

37.4
35.6
32.3
37.2
38.8

Each recorded value in this set is attributed to paper PMC12203311.
